# TARGET_SYSTEM: T1, UNK ZnF1-3 (human, UniProt Q9C0B0 31-174)
# T1 sequence: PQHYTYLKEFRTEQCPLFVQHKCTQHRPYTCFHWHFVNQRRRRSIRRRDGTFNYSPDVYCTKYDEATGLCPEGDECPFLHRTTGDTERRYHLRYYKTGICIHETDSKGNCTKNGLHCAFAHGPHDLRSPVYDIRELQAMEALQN
# ASSAY: nsRBNS (natural sequence RNA bind-n-seq); RBNS binding buffer (assumed for nsRBNS): 25 mM Tris pH 7.5, 150 mM KCl, 3 mM MgCl2, 0.01% Triton X-100, 500 ug/ml BSA, 20 U/ml SUPERase-In, 4 C; UNK is unkempt and MSI1 is Musashi-1; names of the RNAs are library labels; protein concentration not given here; high values mean tight binding
Whole data set: some 24,000 sequences, median “enrichment r” near 0.99, cut for the highest 2% near 3.7. The entries come from a sample that favours the highest values as a whole.
Provide the reported binding signal of each item.
Give bare numbers, in enrichment R.

Take each entry in turn and give its binding signal.
1. chr22:38882006:38882007:-_ENSG00000100201_ENST00000396821|hu_hu|FALSE|FALSE (ssRNA) RNA: GGGAGUUCUACAGUCCGACGAUCAGGAGGAGGAGGGGGAGGAGGAGGAGGGUAUUGGUAGGCAGUCUGCCCCAUGUAACCUAUCAUAUUGGUAGCUCCCGGAGGCUGUGCAAACUGUUGUGACAUCAGUGGCUGUGGCUGCUGCAACAGAGGAUUGAGCAUCA
2. chr4:43703020:43703021:+_ENSMUSG00000078716_ENSMUST00000107866|mus_mus|FALSE|FALSE (ssRNA) RNA: GGGAGUUCUACAGUCCGACGAUCCACACUGCCAGCAAUGAGCAUGUGCCAAAUGCUGUGAAUGUAGAAGUAGUUGUCCCGAGUCUCCACGAAAGCAUACAGUAGAACGGCACUGCCAGCAAUCAGGCUGCCGGGACACAGGUACAACAGAGGAUUGAGCAUCA

1.56
0.899
